Sourced from ChEMBL document CHEMBL4689842

Test system: HEK-293T
Assay: Incucyte cell viability with HEK293T; also: filed as whole numbers so only -1 and 0 and 1 occur
Type: toxicity, cell-based
Details: human, 0 h, 10 µM, compound concentration 10 uM, replicate number 2, timepoint 0 hours
Measured Growth Rate, listed per entry for reference.
Output: the number by itself.

Worked cases, answers included:
Cc1nc(-c2ccc(C(F)(F)F)cc2)sc1COc1ccc([C@H](CC(=O)O)c2ccon2)cc1 = 0
O=S(=O)(NC1CCC(c2cc(F)ccc2F)(S(=O)(=O)c2ccc(Cl)cc2)CC1)C(F)(F)F (stereo not drawn) = 1
CCOC(=O)c1c(C)[nH]c2ccc3c(c12)CN1CCc2cc(OC)ccc2C1O3 (stereo not drawn) = 0
CCn1cc(-c2ccnc3[nH]c(-c4cccc(CN(C)C)c4)cc23)c(-c2ccc(NC(=O)N(C)C)cc2)n1 = 1

Enter Growth Rate (test system HEK-293T) for `Cn1nc(C(F)(F)F)cc1-c1cnc(N2CCc3cc(S(=O)(=O)Nc4c(F)cc(Cl)cc4F)cc(N4CCCC4=O)c32)nc1`
1

Provide measured Growth Rate on HEK-293T for `C#C[C@]1(O)CC[C@H]2[C@@H]3CCc4cc(O)ccc4[C@H]3CC[C@@]21C` please.
0

Retrieve Growth Rate on HEK-293T; query `CCCS(=O)(=O)Nc1ccc(F)c(C(=O)c2c[nH]c3ncc(Cl)cc23)c1F`
1

# return Growth Rate for `Cc1c(NC(=O)c2cc(C(N)=O)nc3cc(F)ccc23)c(C(F)(F)F)nn1Cc1ccc(C#N)cc1` , test system: HEK-293T
0
